test system: Hepatitis C virus NS3 helicase; assay: inhibitors of HCV NS3 helicase, primary screen, biochemical, Cy5 molecular beacon fluorescence (AID 1800); conditions: NS3 helicase DNA unwinding, at 10.9 µM, hits give high values;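 note: 0% = DMSO wells and 100% = thioflavine S control wells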
The whole screen tested about 290,000 compounds, of which about 1,600 (0.55%) were called active. The list comes from a sample in which actives are over-represented; it also holds close analogues and randomly drawn compounds.
READOUT KIND: inhibition (%)
Write the answer as a number in %, unit excluded.

In: I'd like to know its inhibition. The compound in question is Cc1cccc(N(C)C(=O)c2cc(S(=O)(=O)N3CCCCC3)c[nH]2)c1
Out: -16.4

In: Also Cc1ccc(S(=O)(=O)Oc2ccc(/C=N/NC(=O)c3ccncc3)cc2)cc1 , if possible.
Out: -3.55

In: Now consider O=c1c(-c2cccc(Cl)c2)c[nH]n1-c1ccccc1 .
Out: 4.7

In: Similarly, Cc1cccc(CCNS(=O)(=O)c2ccc3c(c2)NC(=O)CO3)c1 ?
Out: -2.06

In: Please do the same for O=C(CSc1nnc(Nc2ccccc2)s1)Nc1cccnc1Cl as well.
Out: 4.07

In: COc1nnc(-c2ccc(C)c(S(=O)(=O)N(C)C)c2)c2ccccc12 , same question.
Out: -1.73

In: What do you get for CC(C)c1ccc(Nc2nnc(SCC(=O)c3nnc(-c4ccccc4)o3)s2)cc1 ?
Out: 42.3

In: What about CCn1c(C)c(C)c2cc(C(=O)N3CCN(c4cccc(C)c4C)CC3)ccc21 ?
Out: 2.52

In: And O=C(Nc1ccccc1C(=O)N1CCCCC1)c1ccco1 ?
Out: 5.37

In: // same read-out, input: Cc1cc(C)n(CCC(=O)N2CCN(S(=O)(=O)c3ccc(C)c(C)c3)CC2)n1
Out: -5.54

In: Same thing, different compound: CCc1noc(C)c1C(=O)N1CCCC(N2CCN(c3ccc(F)cc3)CC2)C1 (stereo not drawn)
Out: 8.93

In: COc1ccccc1N1CCN(C(=O)CCS(=O)(=O)c2ccc3c(c2)NC(=O)C(C)S3)CC1 (stereo not drawn) ?
Out: 38.1

In: Okay, and COc1cc(C(=O)Nc2oc(-c3ccccc3)c(-c3ccccc3)c2C#N)cc(OC)c1OC ?
Out: -0.57

In: And what about the compound COC(=O)C1=C(C)N(C(C)c2ccccc2)C(=O)/C1=C\c1ccco1 (stereo not drawn) ?
Out: 20.9

In: Moving on to the next compound: O=C(Nc1ccc(N2CCOCC2)cc1)c1ccc(-c2ccccc2[N+](=O)[O-])o1
Out: -10.2

In: For O=C1C=CC(=O)N1c1ccc(N2CCCCC2)cc1 then?
Out: 45.2

In: Repeat for the following compound: COc1ccc(NC(=S)N2CCC(NC(=O)c3cccc(F)c3)CC2)cc1
Out: 5.28

In: Now the compound O=c1c2c(-c3ccccc3)ccnc2[nH]n1-c1ccccc1
Out: 47.7

In: Another compound to check: CCC(C(=O)OC)n1cnc2c(oc3ccccc32)c1=O (stereo not drawn)
Out: -6.44

In: Please answer likewise for Nc1c(C(=O)c2cccs2)sc2nsc(SCCN3CCCCC3)c12
Out: -21.1

In: What about this compound? CC1CCCN(c2ccc(C(=O)NCCc3ccccc3)cn2)C1 (stereo not drawn)
Out: -1.78

In: What do you get for N#C/C=C(/c1ccc(F)cc1)N1CCOCC1 ?
Out: 40.5

In: Repeat with CC1Sc2ccc(S(=O)(=O)CCC(=O)NCc3ccccc3Cl)cc2NC1=O (stereo not drawn)
Out: 8.3

In: Okay, and COc1ccc(S(=O)(=O)N2CCSCC2)cc1 ?
Out: 9.62

In: Now the same for Cc1cccc(N2CCN(C(=O)CCS(=O)(=O)c3ccc4c(c3)NC(=O)C(C)S4)CC2)c1C (stereo not drawn)
Out: -0.36

In: Please do the same for O=C(Oc1ccc(F)cc1)N1CCOCC1 as well.
Out: 4.09

In: Try this compound too: CCOc1ccc(CN2CCNC(=O)C2CC(=O)NCCCC2CCCC2)cc1 (stereo not drawn)
Out: -18.7

In: What do you get for Cc1ccccc1NC(=O)CN1C(=O)N/C(=C\c2cccn2-c2cccc(C(=O)O)c2)C1=O ?
Out: 21.8

In: Please do the same for COc1ccc(NC(=O)CN2C(=O)CSc3ccc(S(=O)(=O)N4CCC(C)CC4)cc32)cc1 as well.
Out: -2.68

In: Lookup CN1C(=O)/C(=C\c2ccc(-c3ccccc3)o2)SC1=S
Out: 23.6

In: Again, but for CC1CCN(S(=O)(=O)c2ccc(NC(=O)C3CC(=O)N(c4ccccc4)C3)cc2)CC1 (stereo not drawn)
Out: -43.1

In: Try this compound next: O=C(Cc1ccccc1)NC(=S)Nc1ccc(N2CCCCC2)cc1
Out: -1.95

In: # iterate: COc1ccc(CCn2c(=N)c(C(=O)NCC3CCCO3)cc3c(=O)n4cccc(C)c4nc32)cc1OC (stereo not drawn)
Out: 0.37

In: Another compound: CN1CCN(/N=C/c2ccc(-c3ccc([N+](=O)[O-])cc3)o2)CC1
Out: -1.77

In: Again, but for CCOC(=O)c1c(-c2ccccc2)oc2cc(Br)c(O)cc12
Out: -8.03

In: // query: CC1=NN(c2ccc(Cl)c(C(=O)O)c2)C(=O)/C1=C/c1ccc(-c2ccccc2[N+](=O)[O-])o1
Out: 43.5

In: # repeat for CC(C)=N/N=C1/NC(=O)C(Cc2ccccc2)S1 (stereo not drawn)
Out: 12.1

In: Again, but for Cc1ccc(C(=O)/C=C/Nc2ccc(S(=O)(=O)Nc3onc(C)c3C)cc2)cc1
Out: 23.3

In: What would you report for Cc1ccc(-c2ccnc3[nH]n(-c4ccccc4)c(=O)c23)cc1 ?
Out: 15.7

In: Subsequent entry: Cc1cccc(NC(=O)CCn2c(=O)oc3ccccc32)c1
Out: -6.84

In: Similarly, O=C(CSC(=S)N1CCCCC1)c1c(F)cccc1F ?
Out: 4.19

In: Also, CC(=O)O[C@H]1c2ccccc2-c2ccccc2[C@@H]1OC(C)=O please.
Out: 13.1

In: Would you kindly repeat that for CC(=O)Nc1ccc(NC(=O)CSc2ncnc3c2cnn3Cc2ccccc2)cc1 ?
Out: -5.31

====

test system: Hepatitis C virus NS3 helicase; experiment: inhibitors of HCV NS3 helicase, primary screen, biochemical, Cy5 molecular beacon fluorescence (AID 1800); details: NS3 helicase DNA unwinding, at 10.9 µM;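 note: 0% = DMSO wells and 100% = thioflavine S control wells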
The whole screen tested about 290,000 compounds, of which about 1,600 (0.55%) were called active.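 How the source made its calls: active means inhibition above the mean of all tested compounds plus 3 SD, set per campaign (cut at about 35% in these data); inactive means the rest.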 The list comes from a sample in which actives are over-represented; it also holds close analogues and randomly drawn compounds.
Form entry, call: pick from 1.0 = active, 0.0 = inactive

In: Record lookup: outcome of this test for CNS(=O)(=O)c1cccc(C(=O)NCC2CCCCC2)c1 ?
Out: 0.0

In: Quick one: O=C(NCCc1ccccn1)c1nc(Cn2cc([N+](=O)[O-])cn2)no1
Out: 0.0

In: Item: CCn1cc(C(=O)OCC(=O)Nc2cccc(C)c2)c(=O)c2ccc(C)nc21
Out: 0.0

In: For COc1ccc(-c2nn(-c3ccccc3)cc2/C=C2/SC(=S)N(CCCC(=O)O)C2=O)c(C)c1 then?
Out: 0.0

In: Same for CNS(=O)(=O)c1cccc(C(=O)NC2CCCc3ccccc32)c1 (stereo not given)
Out: 1.0

In: Let us now turn to CN(c1ccccc1)S(=O)(=O)c1ccc(C(=O)NCCc2ccccc2)cc1
Out: 0.0

In: For Cc1ccc(N2NC(=O)/C(=C/C=C/c3ccco3)C2=O)cc1C then?
Out: 0.0

In: Moving on to O=C(O)c1cc(S(=O)(=O)NC2CCCc3ccccc32)ccc1O (stereo not given)
Out: 0.0

In: Same thing, different compound: CCC1(C(=O)c2ccccc2)C(c2cccc([N+](=O)[O-])c2)C1(C(=O)OC)C(=O)OC (stereo not given)
Out: 0.0

In: Param item: COc1ccc(Cl)cc1NC(=O)CN(C)C(=O)CCCc1c[nH]c2ccccc12
Out: 0.0

====

system: Hepatitis C virus NS3 helicase; assay: inhibitors of HCV NS3 helicase, primary screen, biochemical, Cy5 molecular beacon fluorescence (AID 1800); conditions: NS3 helicase DNA unwinding, at 10.9 µM;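 note: 0% = DMSO wells and 100% = thioflavine S control wells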
Among all 290,000 compounds or so, about 1,600 (0.55%) were called active.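 The calls were made as follows: active = inhibition above the mean of all tested compounds plus 3 SD, set per campaign (cut at about 35% in these data); inactive = the rest.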 What follows is part of a selection rich in actives, with near analogues and random picks from the rest.
// one of active, inactive, no free text

In: What was the test verdict on COCC(C)n1c(C)cc(C(=O)COc2ccc(C)nc2[N+](=O)[O-])c1C (stereo not given) ?
Out: inactive

In: Another: Cc1cc(C(=O)COC(=O)CNC(=O)c2ccc(F)cc2)c(C)n1Cc1ccco1
Out: inactive

In: Now this one: Cc1ccc(OCC(=O)c2cc(C)n(Cc3ccco3)c2C)c([N+](=O)[O-])n1
Out: active

In: Would you mind doing COc1cccc(CNC(=O)c2cccnc2Sc2ccc(Cl)cc2)c1 as well?
Out: inactive

In: Also, Cc1ccc(-c2nn(-c3ccccc3)cc2/C=C2\SC(=S)N(CCCCCC(=O)O)C2=O)o1 please.
Out: active
